Reported AC50 values for the following molecules.
EXPERIMENTAL SYSTEM: rat Adrenergic Receptor, Alpha 2 (Adra2), Non-selective Binding, Adra2a (gene 25083) (UniProt P22909)
Sequence (P22909 whole entry, looked up): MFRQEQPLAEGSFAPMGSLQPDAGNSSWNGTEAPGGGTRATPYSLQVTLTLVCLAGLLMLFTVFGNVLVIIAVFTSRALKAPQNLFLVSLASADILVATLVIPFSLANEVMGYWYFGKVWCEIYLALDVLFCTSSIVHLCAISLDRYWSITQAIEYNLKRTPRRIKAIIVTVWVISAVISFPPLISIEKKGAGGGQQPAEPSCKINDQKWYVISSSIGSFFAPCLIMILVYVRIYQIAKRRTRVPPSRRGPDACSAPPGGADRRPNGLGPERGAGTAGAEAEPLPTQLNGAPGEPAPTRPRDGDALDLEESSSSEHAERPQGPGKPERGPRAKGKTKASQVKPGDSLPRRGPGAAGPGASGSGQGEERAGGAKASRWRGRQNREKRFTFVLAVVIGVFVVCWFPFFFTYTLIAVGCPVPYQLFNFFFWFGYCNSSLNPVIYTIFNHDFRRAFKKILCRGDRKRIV
PROCEDURE SUMMARY: NVS_GPCR_rAdra2_NonSelective: NovaScreen (NVS) G Protein-Coupled Receptor Assay for rat Adrenergic Receptor, Alpha 2 (Adra2), Non-selective Binding (AID 2283299)
Results filed as inconclusive are left out. The source made the active and inactive calls. The calls were made as follows: active = hit-call score of the fitted dose curve at least 0.9, where 1 is the maximum; inconclusive = response in the unintended direction; inactive = score below 0.9.
TEST READOUT: AC50

MOLECULE SMILES: CCCCc1oc2ccccc2c1C(=O)c1cc(I)c(OCCN(CC)CC)c(I)c1
OBS VALUE: 10.8 µM (active)
--
MOLECULE SMILES: NC(=NCCCCCCN=C(N)/N=C(\N)Nc1ccc(Cl)cc1)/N=C(\N)Nc1ccc(Cl)cc1
OBS VALUE: 17.6 µM (active)
--
MOLECULE SMILES: COC1=CC(=O)C[C@@H](C)[C@]12Oc1c(Cl)c(OC)cc(OC)c1C2=O
OBS VALUE: 3.69 µM (active)
--
MOLECULE SMILES: N=C(N)c1ccc(OCCCCCOc2ccc(C(=N)N)cc2)cc1
OBS VALUE: 3.49 µM (active)

---

Read-out: C-C motif chemokine 2 (Homo sapiens)
PROCEDURE SUMMARY: BSK_KF3CT_MCP1: BioMAP Diversity Plus: KF3CT Assay for Monocyte Chemoattractant Protein 1 (MCP1/CCL2) Biomarker Activity (AID 2283073)
RUN CONDITIONS: primary human keratinocytes with fibroblasts; actives raise or lower the signal
Active and inactive are the calls of the source. Rule for the calls: active = hit-call score of the fitted dose curve at least 0.9, where 1 is the maximum; inactive = score below 0.9.
Classes used: Y = active, N = inactive

MOLECULE SMILES: O=C(c1ccccc1)c1ccccc1
CAT: N

MOLECULE SMILES: CC[N+](CC)(CC)Cc1ccccc1
CAT: N

MOLECULE SMILES: Cc1ccc(N=Nc2c(O)ccc3ccccc23)c(C)c1
CAT: N

MOLECULE SMILES: CN(Cc1cnc2nc(N)nc(N)c2n1)c1ccc(C(=O)N[C@@H](CCC(=O)O)C(=O)O)cc1
CAT: N

MOLECULE SMILES: O=P(O)(O)CCC(F)(F)C(F)(F)C(F)(F)C(F)(F)C(F)(F)C(F)(F)C(F)(F)C(F)(F)F
CAT: N

MOLECULE SMILES: NC(=NCCCCCCN=C(N)/N=C(\N)Nc1ccc(Cl)cc1)/N=C(\N)Nc1ccc(Cl)cc1
CAT: Y

MOLECULE SMILES: C=COC(=O)C(C)(C)CCCCCC
CAT: Y

MOLECULE SMILES: O=P(O)(O)CCC(F)(F)C(F)(F)C(F)(F)C(F)(F)C(F)(F)C(F)(F)F
CAT: N

---

Read-out: TIMP metallopeptidase inhibitor 1 (TIMP1), TIMP1 (gene 7076)
PROCEDURE SUMMARY: BSK_MyoF_TIMP1: BioMAP Diversity Plus: MyoF Assay for TIMP metallopeptidase inhibitor 1 (TIMP1) Biomarker Activity (AID 2284269)
RUN CONDITIONS: primary human lung fibroblasts
Activity calls are given as the source filed them. The calls were made as follows: active = hit-call score of the fitted dose curve at least 0.9, where 1 is the maximum; inactive = score below 0.9.
Classes used: Y for active, N for inactive

COMPOUND: NC(=NCCCCCCN=C(N)/N=C(\N)Nc1ccc(Cl)cc1)/N=C(\N)Nc1ccc(Cl)cc1
CAT: Y

COMPOUND: C=CC(=O)OCCC(F)(F)C(F)(F)C(F)(F)C(F)(F)C(F)(F)C(F)(F)C(F)(F)C(F)(F)F
CAT: N

COMPOUND: C=COC(=O)C(C)(C)CCCCCC
CAT: N

COMPOUND: O=C(NCc1ncc(C(F)(F)F)cc1Cl)c1c(Cl)cccc1Cl
CAT: N

COMPOUND: Cc1ccc(N=Nc2c(O)ccc3ccccc23)c(C)c1
CAT: N

COMPOUND: COC1=CC(=O)C[C@@H](C)[C@]12Oc1c(Cl)c(OC)cc(OC)c1C2=O
CAT: N

COMPOUND: CN(C)c1ccc(C(=C2C=CC(=[N+](C)C)C=C2)c2ccccc2)cc1
CAT: Y

COMPOUND: CCOC(=O)CN[C@@H](C(=O)N1CC[C@H]1C(=O)NCc1ccc(/C(N)=N/O)cc1)C1CCCCC1
CAT: N

COMPOUND: O=C(O)CCC(F)(F)C(F)(F)C(F)(F)C(F)(F)C(F)(F)F
CAT: N

COMPOUND: COc1cc(OC)nc(NC(=O)NS(=O)(=O)Nc2ccccc2C(=O)N(C)C)n1
CAT: N

COMPOUND: Oc1cc2ccccc2cc1O
CAT: N

COMPOUND: O=C1OC2(c3ccccc31)c1cc(I)c(O)c(I)c1Oc1c2cc(I)c(O)c1I
CAT: Y

COMPOUND: CCCCC(CC)C(=O)OCCOCCOCCOCCOC(=O)C(CC)CCCC (stereo not given)
CAT: N

COMPOUND: C=CC(=C)CC/C=C(\C)CCC=C(C)C
CAT: N

COMPOUND: O=C(CC(=O)C(F)(F)C(F)(F)C(F)(F)F)c1cccs1
CAT: N

COMPOUND: CC1=NN(c2ccccc2)C(=O)C1
CAT: N

COMPOUND: CC[N+](CC)(CC)Cc1ccccc1
CAT: N

COMPOUND: CN(CCO)S(=O)(=O)C(F)(F)C(F)(F)C(F)(F)C(F)(F)C(F)(F)C(F)(F)C(F)(F)C(F)(F)F
CAT: N

COMPOUND: Clc1ccc(Nc2nnc(Cc3ccncc3)c3ccccc23)cc1
CAT: N

COMPOUND: C[C@]12CC[C@@H]3c4ccc(O)cc4CC[C@H]3[C@@H]1C[C@@H](O)[C@@H]2O
CAT: N
